tested on: SR leukemia; assay: NCI-60 one-dose screen, 48 h (100 = growth as untreated, 0 = no growth, -100 = all killed); details: 10 µM unless noted
Compounds without any hit were thinned out: in the full panel of roughly 83,000, 20% have a hit. Activity calls are given as the source filed them. The calls were made as follows: active = growth percent below 10; inactive = the rest.
test-readout: growth

- CC12CCC3C(C=CC4=C(N)C(=O)CCC43C)C1CCC2=O (stereo not drawn): -18.1% (active)

growth for "CC[C@H](NC(=O)[C@H]1CCCCN1C)C(=O)N(C)[C@H](C[C@@H](OC(C)=O)c1nc(C(=O)N[C@@H](Cc2ccccc2)C[C@H](C)C(=O)O)cs1)C(C)C" is 6.46% (active)

growth for "COc1cc([C@@H]2c3cc4c(cc3[C@H](OC(C)=O)[C@H]3COC(=O)[C@H]23)OCO4)cc(OC)c1OC" is 9.46% (active)

growth for "CCOC(=O)CCN(C)C1=Nc2ccc(Cl)cc2C(c2ccccc2)=[N+]([O-])C1" is 85.8% (inactive)

growth for "COc1ccc(/C=C\c2cc(OC)c(OC)c(OC)c2)c(NS(=O)(=O)c2ccc(C)cc2)c1O" is 17.2% (inactive)
